// provenance: PubChem BioAssay AID1549

# SYSTEM_UNDER_TEST: Influenza A virus M2 proton channel (A/TW/4845/1999 H1N1)
# ASSAY_PROCEDURE: M2 proton channel binding, NMR based, influenza A virus H1N1 strain (AID 1549)
# STATED_CONDITIONS: NMR binding screen, M2 protein
Activity calls are given as the source filed them. How the calls were made is not given here.

>  <MOLECULE>
CC(=O)Nc1cnn(Cc2ccc(Br)cc2)c1

>  <SYSTEM_UNDER_TEST>
Influenza A virus M2 proton channel (A/TW/4845/1999 H1N1)

>  <Kd>
> 4 mM (inactive)

$$$$
>  <MOLECULE>
OC[C@@H]1CCCN2CCCC[C@H]12

>  <SYSTEM_UNDER_TEST>
Influenza A virus M2 proton channel (A/TW/4845/1999 H1N1)

>  <Kd>
> 4 mM (inactive)

$$$$
>  <MOLECULE>
COc1ccc(-c2c(C)n([O-])c(C)c(C)[n+]2=O)cc1

>  <SYSTEM_UNDER_TEST>
Influenza A virus M2 proton channel (A/TW/4845/1999 H1N1)

>  <Kd>
> 4 mM (inactive)

$$$$
>  <MOLECULE>
Oc1cccc2[nH]ccc12

>  <SYSTEM_UNDER_TEST>
Influenza A virus M2 proton channel (A/TW/4845/1999 H1N1)

>  <Kd>
> 4 mM (inactive)

$$$$
>  <MOLECULE>
Cc1ccc(NC(=O)c2ccccc2)s1

>  <SYSTEM_UNDER_TEST>
Influenza A virus M2 proton channel (A/TW/4845/1999 H1N1)

>  <Kd>
> 4 mM (inactive)

$$$$
>  <MOLECULE>
Cc1cc(NC(=O)Cc2c(F)cccc2Cl)no1

>  <SYSTEM_UNDER_TEST>
Influenza A virus M2 proton channel (A/TW/4845/1999 H1N1)

>  <Kd>
> 4 mM (inactive)

$$$$
>  <MOLECULE>
Cc1cc(C)n2nc(N)nc2n1

>  <SYSTEM_UNDER_TEST>
Influenza A virus M2 proton channel (A/TW/4845/1999 H1N1)

>  <Kd>
> 4 mM (inactive)

$$$$
>  <MOLECULE>
CC(=O)c1cc(CN2C(=O)c3ccccc3C2=O)cs1

>  <SYSTEM_UNDER_TEST>
Influenza A virus M2 proton channel (A/TW/4845/1999 H1N1)

>  <Kd>
> 4 mM (inactive)

$$$$
>  <MOLECULE>
CC(=O)Nc1sccc1C(N)=O

>  <SYSTEM_UNDER_TEST>
Influenza A virus M2 proton channel (A/TW/4845/1999 H1N1)

>  <Kd>
> 4 mM (inactive)

$$$$
>  <MOLECULE>
O=c1ccn(Cc2ccccc2)c(=O)[nH]1

>  <SYSTEM_UNDER_TEST>
Influenza A virus M2 proton channel (A/TW/4845/1999 H1N1)

>  <Kd>
> 4 mM (inactive)

$$$$
>  <MOLECULE>
O=C(O)C1Cc2ccccc2N1 (configuration not stated)

>  <SYSTEM_UNDER_TEST>
Influenza A virus M2 proton channel (A/TW/4845/1999 H1N1)

>  <Kd>
> 4 mM (inactive)

$$$$
>  <MOLECULE>
Cn1cccc1C(=O)NS(=O)(=O)c1ccccc1Cl

>  <SYSTEM_UNDER_TEST>
Influenza A virus M2 proton channel (A/TW/4845/1999 H1N1)

>  <Kd>
> 4 mM (inactive)

$$$$
>  <MOLECULE>
O=C(/C=C/c1ccco1)NC1=NCCS1

>  <SYSTEM_UNDER_TEST>
Influenza A virus M2 proton channel (A/TW/4845/1999 H1N1)

>  <Kd>
> 4 mM (inactive)

$$$$
>  <MOLECULE>
Nc1ccc2nsnc2c1

>  <SYSTEM_UNDER_TEST>
Influenza A virus M2 proton channel (A/TW/4845/1999 H1N1)

>  <Kd>
> 4 mM (inactive)

$$$$
>  <MOLECULE>
CCN1C(=O)c2cccc3c(S(N)(=O)=O)ccc1c23

>  <SYSTEM_UNDER_TEST>
Influenza A virus M2 proton channel (A/TW/4845/1999 H1N1)

>  <Kd>
> 4 mM (inactive)

$$$$
>  <MOLECULE>
COc1cc(S(=O)(=O)N(C)C)ccc1F

>  <SYSTEM_UNDER_TEST>
Influenza A virus M2 proton channel (A/TW/4845/1999 H1N1)

>  <Kd>
> 4 mM (inactive)

$$$$
>  <MOLECULE>
OCC1CNc2ccccc2O1 (configuration not stated)

>  <SYSTEM_UNDER_TEST>
Influenza A virus M2 proton channel (A/TW/4845/1999 H1N1)

>  <Kd>
> 4 mM (inactive)

$$$$
>  <MOLECULE>
O=C1NC(=Nc2ccccc2)S/C1=C/c1cccnc1

>  <SYSTEM_UNDER_TEST>
Influenza A virus M2 proton channel (A/TW/4845/1999 H1N1)

>  <Kd>
> 4 mM (inactive)

$$$$
>  <MOLECULE>
NC(=O)N1CCc2ccccc21

>  <SYSTEM_UNDER_TEST>
Influenza A virus M2 proton channel (A/TW/4845/1999 H1N1)

>  <Kd>
> 4 mM (inactive)

$$$$
>  <MOLECULE>
Fc1cccc(F)c1CN1CCN(c2ncccn2)CC1

>  <SYSTEM_UNDER_TEST>
Influenza A virus M2 proton channel (A/TW/4845/1999 H1N1)

>  <Kd>
> 4 mM (inactive)

$$$$
>  <MOLECULE>
O=C(c1ccncc1)c1ccc(Br)cc1

>  <SYSTEM_UNDER_TEST>
Influenza A virus M2 proton channel (A/TW/4845/1999 H1N1)

>  <Kd>
> 4 mM (inactive)

$$$$
>  <MOLECULE>
O=C1NC2NC(=O)N(c3ccccc3)C2N1 (configuration not stated)

>  <SYSTEM_UNDER_TEST>
Influenza A virus M2 proton channel (A/TW/4845/1999 H1N1)

>  <Kd>
> 4 mM (inactive)

$$$$
>  <MOLECULE>
CC(C)=CC(=O)Nc1ccc(S(N)(=O)=O)cc1

>  <SYSTEM_UNDER_TEST>
Influenza A virus M2 proton channel (A/TW/4845/1999 H1N1)

>  <Kd>
> 4 mM (inactive)

$$$$
>  <MOLECULE>
CC(=O)Nc1nc2c(s1)C(=O)NCCC2

>  <SYSTEM_UNDER_TEST>
Influenza A virus M2 proton channel (A/TW/4845/1999 H1N1)

>  <Kd>
> 4 mM (inactive)

$$$$
>  <MOLECULE>
CC1(C)Cc2nc3n[nH]c(N)c3cc2CO1

>  <SYSTEM_UNDER_TEST>
Influenza A virus M2 proton channel (A/TW/4845/1999 H1N1)

>  <Kd>
> 4 mM (inactive)

$$$$
>  <MOLECULE>
O=c1[nH]cnc2nc[nH]c12

>  <SYSTEM_UNDER_TEST>
Influenza A virus M2 proton channel (A/TW/4845/1999 H1N1)

>  <Kd>
> 4 mM (inactive)

$$$$
>  <MOLECULE>
CCOC(=O)c1c(C)cc(O)c(C)c1O

>  <SYSTEM_UNDER_TEST>
Influenza A virus M2 proton channel (A/TW/4845/1999 H1N1)

>  <Kd>
> 4 mM (inactive)

$$$$
>  <MOLECULE>
NC(=O)c1ccc(C(N)=O)c(-c2ccccc2)c1

>  <SYSTEM_UNDER_TEST>
Influenza A virus M2 proton channel (A/TW/4845/1999 H1N1)

>  <Kd>
> 4 mM (inactive)

$$$$
>  <MOLECULE>
N#Cc1cc2ccccc2nc1N

>  <SYSTEM_UNDER_TEST>
Influenza A virus M2 proton channel (A/TW/4845/1999 H1N1)

>  <Kd>
> 4 mM (inactive)

$$$$
>  <MOLECULE>
Cc1nnsc1C(=O)O

>  <SYSTEM_UNDER_TEST>
Influenza A virus M2 proton channel (A/TW/4845/1999 H1N1)

>  <Kd>
> 4 mM (inactive)

$$$$
>  <MOLECULE>
Cc1cc(NC(=O)NCCCSc2nncn2C)no1

>  <SYSTEM_UNDER_TEST>
Influenza A virus M2 proton channel (A/TW/4845/1999 H1N1)

>  <Kd>
> 4 mM (inactive)

$$$$
>  <MOLECULE>
O=C(Cn1cnc2ccccc2c1=O)N1CCOCC1

>  <SYSTEM_UNDER_TEST>
Influenza A virus M2 proton channel (A/TW/4845/1999 H1N1)

>  <Kd>
> 4 mM (inactive)

$$$$
>  <MOLECULE>
Cc1nc2c(=O)[nH]c3ccccc3c2o1

>  <SYSTEM_UNDER_TEST>
Influenza A virus M2 proton channel (A/TW/4845/1999 H1N1)

>  <Kd>
> 4 mM (inactive)

$$$$
>  <MOLECULE>
CC1(O)CC2C(CC1O)C2(C)C (configuration not stated)

>  <SYSTEM_UNDER_TEST>
Influenza A virus M2 proton channel (A/TW/4845/1999 H1N1)

>  <Kd>
> 4 mM (inactive)

$$$$
>  <MOLECULE>
Cc1nn(C)c(Cl)c1C(O)c1c(C)nn(C)c1Cl

>  <SYSTEM_UNDER_TEST>
Influenza A virus M2 proton channel (A/TW/4845/1999 H1N1)

>  <Kd>
> 4 mM (inactive)

$$$$
>  <MOLECULE>
O=C1CN(C(=O)c2ccccc2F)c2ccccc2N1

>  <SYSTEM_UNDER_TEST>
Influenza A virus M2 proton channel (A/TW/4845/1999 H1N1)

>  <Kd>
> 4 mM (inactive)

$$$$
>  <MOLECULE>
CN(C)Cc1nc2c([nH]1)c(=O)[nH]c(=O)n2C

>  <SYSTEM_UNDER_TEST>
Influenza A virus M2 proton channel (A/TW/4845/1999 H1N1)

>  <Kd>
> 4 mM (inactive)

$$$$
>  <MOLECULE>
COc1ccc(C(C)=O)c(OC)c1

>  <SYSTEM_UNDER_TEST>
Influenza A virus M2 proton channel (A/TW/4845/1999 H1N1)

>  <Kd>
> 4 mM (inactive)

$$$$
>  <MOLECULE>
COc1ccc(Cl)cc1NC(=O)c1ccco1

>  <SYSTEM_UNDER_TEST>
Influenza A virus M2 proton channel (A/TW/4845/1999 H1N1)

>  <Kd>
> 4 mM (inactive)

$$$$
>  <MOLECULE>
COC(=O)c1noc(C)c1C(C)=O

>  <SYSTEM_UNDER_TEST>
Influenza A virus M2 proton channel (A/TW/4845/1999 H1N1)

>  <Kd>
> 4 mM (inactive)

$$$$
>  <MOLECULE>
NC(=O)/C=C/C(=O)Nc1ccccc1

>  <SYSTEM_UNDER_TEST>
Influenza A virus M2 proton channel (A/TW/4845/1999 H1N1)

>  <Kd>
> 4 mM (inactive)

$$$$
>  <MOLECULE>
c1coc(CNc2ncnc3nc[nH]c23)c1

>  <SYSTEM_UNDER_TEST>
Influenza A virus M2 proton channel (A/TW/4845/1999 H1N1)

>  <Kd>
> 4 mM (inactive)

$$$$
>  <MOLECULE>
CN1CCC[C@H]1c1cccnc1

>  <SYSTEM_UNDER_TEST>
Influenza A virus M2 proton channel (A/TW/4845/1999 H1N1)

>  <Kd>
> 4 mM (inactive)

$$$$
>  <MOLECULE>
c1ccc(Cc2nnc(-c3ccccc3)o2)cc1

>  <SYSTEM_UNDER_TEST>
Influenza A virus M2 proton channel (A/TW/4845/1999 H1N1)

>  <Kd>
> 4 mM (inactive)

$$$$
>  <MOLECULE>
Cc1cc(=O)cc(C)n1-c1ccccc1N

>  <SYSTEM_UNDER_TEST>
Influenza A virus M2 proton channel (A/TW/4845/1999 H1N1)

>  <Kd>
> 4 mM (inactive)

$$$$
>  <MOLECULE>
CC(=O)C1=C(O)C(=O)NC1c1ccccc1 (configuration not stated)

>  <SYSTEM_UNDER_TEST>
Influenza A virus M2 proton channel (A/TW/4845/1999 H1N1)

>  <Kd>
> 4 mM (inactive)

$$$$
>  <MOLECULE>
C=C1[C@H]2CC[C@@]3(C)[C@H](c4ccoc4)OC(=O)C[C@]13O[C@H]1C[C@H](O)C(C)(C)[C@H](CC(=O)OC)[C@]12C

>  <SYSTEM_UNDER_TEST>
Influenza A virus M2 proton channel (A/TW/4845/1999 H1N1)

>  <Kd>
> 4 mM (inactive)

$$$$
>  <MOLECULE>
CCc1cccc(C)c1NC(=O)c1cc(C)oc1C

>  <SYSTEM_UNDER_TEST>
Influenza A virus M2 proton channel (A/TW/4845/1999 H1N1)

>  <Kd>
> 4 mM (inactive)

$$$$
>  <MOLECULE>
Nc1ccc(S(=O)(=O)N2CCCCC2)cc1

>  <SYSTEM_UNDER_TEST>
Influenza A virus M2 proton channel (A/TW/4845/1999 H1N1)

>  <Kd>
> 4 mM (inactive)

$$$$
>  <MOLECULE>
Cc1cc(C)c2ccc[n+]([O-])c2c1O

>  <SYSTEM_UNDER_TEST>
Influenza A virus M2 proton channel (A/TW/4845/1999 H1N1)

>  <Kd>
> 4 mM (inactive)

$$$$
>  <MOLECULE>
NCc1ccc(-n2cccn2)cc1

>  <SYSTEM_UNDER_TEST>
Influenza A virus M2 proton channel (A/TW/4845/1999 H1N1)

>  <Kd>
> 4 mM (inactive)

$$$$
>  <MOLECULE>
Nc1ccc2c(c1)COc1ccccc1O2

>  <SYSTEM_UNDER_TEST>
Influenza A virus M2 proton channel (A/TW/4845/1999 H1N1)

>  <Kd>
> 4 mM (inactive)

$$$$
>  <MOLECULE>
O=C(O)c1cncc(-c2cccs2)c1

>  <SYSTEM_UNDER_TEST>
Influenza A virus M2 proton channel (A/TW/4845/1999 H1N1)

>  <Kd>
> 4 mM (inactive)

$$$$
>  <MOLECULE>
NC(=O)Cn1cnc2c(cnn2-c2ccccc2)c1=O

>  <SYSTEM_UNDER_TEST>
Influenza A virus M2 proton channel (A/TW/4845/1999 H1N1)

>  <Kd>
> 4 mM (inactive)

$$$$
>  <MOLECULE>
NC(CC(=O)O)C(=O)Nc1ccc(Cl)cc1 (configuration not stated)

>  <SYSTEM_UNDER_TEST>
Influenza A virus M2 proton channel (A/TW/4845/1999 H1N1)

>  <Kd>
> 4 mM (inactive)

$$$$
>  <MOLECULE>
O=C(O)c1csc(-c2ccccc2)n1

>  <SYSTEM_UNDER_TEST>
Influenza A virus M2 proton channel (A/TW/4845/1999 H1N1)

>  <Kd>
> 4 mM (inactive)

$$$$
>  <MOLECULE>
CC(=O)N1CCc2cc(NC(=O)c3ccc(C)cc3)ccc21

>  <SYSTEM_UNDER_TEST>
Influenza A virus M2 proton channel (A/TW/4845/1999 H1N1)

>  <Kd>
> 4 mM (inactive)

$$$$
